Measured MCV by item
species: Rattus norvegicus; assay: Open TG-GATES - Regimen: Single; assay type: toxicity, organism-based, Sprague-Dawley; set-up: regimen Single, gender Male, age 6 weeks; details: in vivo, po, 100 mg/kg, 3 h, tissue Blood, route gavage, dose level High
Hi! Could you send only the number? It should be in fL, unit omitted.

1. CN(C)CCCN1c2ccccc2CCc2ccccc21 :: 63.6
2. CN(C)CCCN1c2ccccc2CCc2ccc(Cl)cc21 :: 64.9
3. CC1=C(/C=C/C(C)=C/C=C/C(C)=C/CO)C(C)(C)CCC1 :: 62

Here is the next item to consider.
So for "CN(C)CCN(Cc1cccs1)c1ccccn1" , the logged MCV turned out to be 62.8

----------
Measured ALP by item
species: Rattus norvegicus; test: Open TG-GATES - Regimen: Single; format: toxicity, organism-based, Sprague-Dawley; design: regimen Single, gender Male, age 6 weeks; settings: in vivo, po, 100 mg/kg, 9 h, tissue Plasma, route gavage, dose level Low
Hi! Could you send only the number? It should be in IU/L, unit omitted.

Worked set:
1. NC(N)=Nc1nc(CSCCC(N)=NS(N)(=O)=O)cs1 :: 851.2
2. COC1=CC(=O)C[C@@H](C)[C@]12Oc1c(Cl)c(OC)cc(OC)c1C2=O :: 994.6
3. CCOC(=O)CCC(=O)O[C@H]1[C@H](O[C@@H]2[C@@H](C)[C@H](O[C@H]3C[C@@](C)(OC)[C@@H](O)[C@H](C)O3)[C@@H](C)C(=O)O[C@H](CC)[C@@](C)(O)[C@H](O)[C@@H](C)C(=O)[C@H](C)C[C@@]2(C)O)O[C@H](C)C[C@@H]1N(C)C [ERYTHROMYCIN ETHYLSUCCINATE] :: 1398.8

Here is the next item to consider.
So for COc1ccc2[nH]c([S+]([O-])Cc3ncc(C)c(OC)c3C)nc2c1 (centres undefined) , the logged ALP turned out to be 826.2

----------
species on record: Rattus norvegicus; test: Open TG-GATES - Regimen: Single; format: toxicity, organism-based, Sprague-Dawley; design: regimen Single, gender Male, age 6 weeks; conditions: in vivo, po, 100 mg/kg, 9 h, tissue Kidney, route gavage, dose level High
Measurement type: KIDNEY_R (g)
Hi! Could you send only the number? It should be in g, unit omitted.

1) CC1=C(/C=C/C(C)=C/C=C/C(C)=C/CO)C(C)(C)CCC1 :: 0.9
2) CN(C)CCCN1c2ccccc2CCc2ccccc21 :: 0.9
3) CN(C)CCCN1c2ccccc2CCc2ccc(Cl)cc21 :: 1

So for "CN(C)CCN(Cc1cccs1)c1ccccn1" , the logged KIDNEY_R turned out to be 0.9

----------
Measured gamma-GTP by item
organism: Rattus norvegicus; assay: Open TG-GATES - Regimen: Daily Repeat; type: toxicity, organism-based, Sprague-Dawley; design: regimen Daily Repeat, gender Male, age 6 weeks; details: in vivo, po, 0 mg/kg, […], tissue Plasma, route gavage, dose level Control, time 14 day
Hi! Could you send only the number? It should be in IU/L, unit omitted.

1. O=C(CCCN1CCC(O)(c2ccc(Cl)cc2)CC1)c1ccc(F)cc1 :: 1.4
2. COC1=CC(=O)C[C@@H](C)[C@]12Oc1c(Cl)c(OC)cc(OC)c1C2=O :: 0.8
3. CN1C(=O)CN=C(c2ccccc2)c2cc(Cl)ccc21 :: 1
4. COc1ccc2[nH]c([S+]([O-])Cc3ncc(C)c(OC)c3C)nc2c1 (stereo not given) :: 1

Here is the next item to consider.
So for "NNC(=O)c1ccncc1" , the logged gamma-GTP turned out to be 0.4
